- study.system: F-box/WD repeat-containing protein 7 (Homo sapiens) (UniProt Q969H0)
- Sequence (Q969H0 whole entry, looked up): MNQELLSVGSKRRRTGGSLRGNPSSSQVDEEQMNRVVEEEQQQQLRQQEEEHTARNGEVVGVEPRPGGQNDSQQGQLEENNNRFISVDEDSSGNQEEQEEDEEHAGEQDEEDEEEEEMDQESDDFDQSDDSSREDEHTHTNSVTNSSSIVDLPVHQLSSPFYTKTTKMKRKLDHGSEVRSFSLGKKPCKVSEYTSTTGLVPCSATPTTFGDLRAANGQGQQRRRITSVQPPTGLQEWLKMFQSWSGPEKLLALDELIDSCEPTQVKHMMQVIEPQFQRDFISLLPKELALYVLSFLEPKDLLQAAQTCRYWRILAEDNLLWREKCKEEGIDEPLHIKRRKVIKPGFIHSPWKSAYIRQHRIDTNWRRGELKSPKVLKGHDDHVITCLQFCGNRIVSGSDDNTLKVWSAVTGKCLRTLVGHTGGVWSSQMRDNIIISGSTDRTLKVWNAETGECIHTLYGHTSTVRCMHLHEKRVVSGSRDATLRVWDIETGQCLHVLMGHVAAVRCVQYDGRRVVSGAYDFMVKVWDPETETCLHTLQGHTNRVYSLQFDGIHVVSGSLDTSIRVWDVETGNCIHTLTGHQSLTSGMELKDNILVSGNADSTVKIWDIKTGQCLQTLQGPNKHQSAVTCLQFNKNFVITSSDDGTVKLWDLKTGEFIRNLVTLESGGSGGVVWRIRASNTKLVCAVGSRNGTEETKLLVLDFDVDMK
- test.name: FBW7 E3 ligase activators, primary screen, biochemical, AlphaScreen, human (AID 1259310);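 further: purified mutant Fbw7 with reduced substrate affinity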
- run.parameters: AlphaScreen FBW7–phospho-cyclin E peptide binding, activator screen; at 26.1 µM; stronger effect = higher value
The whole screen tested about 650,000 compounds, of which about 850 (0.13%) were called active. Shown is part of a subset that was picked to be rich in actives.
recorded.metric: normalized activity (activation) (%)
Write down the numeric answer in % and omit the unit.

O=C(CNC(=O)OCc1ccccc1)Oc1ccc2c(-c3ccccc3)cc(=O)oc2c1    -0.09
O=C1NC(=O)N(c2ccc(Br)cc2)C(=O)/C1=C\C=C\c1ccco1    -0.18
Cc1cc(S(=O)(=O)Nc2ccc(Br)cc2)c(C)c(S(=O)(=O)c2ccc(Cl)cc2)c1    0.11
Cc1cccc2sc(NC(=O)c3ccc(S(=O)(=O)N4CC(C)CC(C)C4)cc3)nc12 (configuration not stated)    0.22
Oc1ccccc1-c1nc(-c2cccc(C(F)(F)F)c2)c(-c2ccccc2)[nH]1    0.23
Cc1c(NC(=O)c2ccc(Br)cc2)cccc1-c1nc2ccccc2o1    0.17

# normalized activity (activation) (compound: CCOC(=O)C1=C(C)NC(=S)NC1c1cc(OC)ccc1O (configuration not stated) ) is 0.11

# normalized activity (activation) (compound: NC(=O)c1ccccc1NC(=S)NC(=O)/C=C/c1cccc([N+](=O)[O-])c1 ) is 0.01

# normalized activity (activation) (compound: Cc1sc2ncn3c(SCC(=O)N4CCc5ccccc54)nnc3c2c1C ) is -0.09

# normalized activity (activation) (compound: CC1=C(C#N)C(=O)N(CCCO)C(=O)/C1=C\c1ccc(-c2ccc(Cl)cc2)o1 ) is -0.06
